STUDY_TARGET: CK1α (Homo sapiens)
Construct: HEK293 clonal lines with CRISPR KI HiBiT tag on CSNK1A1
Sequence (P48729 whole entry): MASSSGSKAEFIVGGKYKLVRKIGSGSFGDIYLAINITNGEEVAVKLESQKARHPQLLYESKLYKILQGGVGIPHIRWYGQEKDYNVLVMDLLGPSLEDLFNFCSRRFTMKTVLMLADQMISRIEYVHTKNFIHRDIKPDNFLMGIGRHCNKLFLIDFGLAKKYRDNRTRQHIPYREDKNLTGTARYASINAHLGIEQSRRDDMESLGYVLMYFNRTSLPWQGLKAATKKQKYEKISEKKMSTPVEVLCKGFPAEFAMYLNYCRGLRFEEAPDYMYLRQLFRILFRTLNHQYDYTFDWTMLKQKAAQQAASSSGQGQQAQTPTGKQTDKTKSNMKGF
Sequence (Q96SW2 whole entry, further chain): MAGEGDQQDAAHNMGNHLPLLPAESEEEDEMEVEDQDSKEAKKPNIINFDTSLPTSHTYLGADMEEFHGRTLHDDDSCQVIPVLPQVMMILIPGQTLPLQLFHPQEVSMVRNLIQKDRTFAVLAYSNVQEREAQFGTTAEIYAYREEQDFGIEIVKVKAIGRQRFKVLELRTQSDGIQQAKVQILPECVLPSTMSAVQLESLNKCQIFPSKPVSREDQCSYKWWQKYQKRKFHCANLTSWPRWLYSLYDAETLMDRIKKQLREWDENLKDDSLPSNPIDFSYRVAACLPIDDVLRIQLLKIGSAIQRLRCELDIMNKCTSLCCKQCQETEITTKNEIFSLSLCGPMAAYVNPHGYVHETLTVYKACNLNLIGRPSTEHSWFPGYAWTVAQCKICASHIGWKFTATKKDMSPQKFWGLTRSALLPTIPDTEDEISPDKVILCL
Sequence (Q16531 2-1140 partner limits assumed): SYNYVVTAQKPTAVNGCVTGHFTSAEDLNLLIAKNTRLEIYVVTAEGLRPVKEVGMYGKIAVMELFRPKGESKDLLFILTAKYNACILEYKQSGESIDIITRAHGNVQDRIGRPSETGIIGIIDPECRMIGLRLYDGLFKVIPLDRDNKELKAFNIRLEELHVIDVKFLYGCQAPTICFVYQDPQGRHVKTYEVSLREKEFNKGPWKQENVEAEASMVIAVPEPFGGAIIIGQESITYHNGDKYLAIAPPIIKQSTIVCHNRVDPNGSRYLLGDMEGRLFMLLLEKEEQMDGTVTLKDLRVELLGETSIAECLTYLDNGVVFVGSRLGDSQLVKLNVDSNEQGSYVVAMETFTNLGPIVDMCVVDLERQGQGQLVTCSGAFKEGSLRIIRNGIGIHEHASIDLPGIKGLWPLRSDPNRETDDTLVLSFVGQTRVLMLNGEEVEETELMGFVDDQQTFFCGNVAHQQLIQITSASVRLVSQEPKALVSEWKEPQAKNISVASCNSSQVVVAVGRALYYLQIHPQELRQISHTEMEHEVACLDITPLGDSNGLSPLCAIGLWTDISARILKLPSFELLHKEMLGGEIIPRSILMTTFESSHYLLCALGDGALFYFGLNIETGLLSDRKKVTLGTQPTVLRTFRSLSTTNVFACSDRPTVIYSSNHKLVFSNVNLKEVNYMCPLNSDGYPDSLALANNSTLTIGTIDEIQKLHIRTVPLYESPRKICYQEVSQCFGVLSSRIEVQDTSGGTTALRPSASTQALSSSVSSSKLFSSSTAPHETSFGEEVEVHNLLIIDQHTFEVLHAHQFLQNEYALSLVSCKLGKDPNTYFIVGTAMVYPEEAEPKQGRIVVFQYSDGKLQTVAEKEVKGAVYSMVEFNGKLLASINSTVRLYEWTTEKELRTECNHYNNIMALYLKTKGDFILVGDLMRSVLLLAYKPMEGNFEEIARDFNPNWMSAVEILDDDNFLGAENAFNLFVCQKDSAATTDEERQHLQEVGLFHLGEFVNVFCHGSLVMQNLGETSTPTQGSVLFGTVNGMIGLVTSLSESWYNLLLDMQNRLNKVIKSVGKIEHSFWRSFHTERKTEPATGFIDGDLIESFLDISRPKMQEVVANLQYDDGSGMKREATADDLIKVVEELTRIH
METHOD_NOTES: CK1α NanoBit Assay (HiBiT-tagged CSNK1A1, HEK293 clonal lines)
Format: cell-based
CONDITION_INFO: HEK293 HiBiT-CSNK1A1/LgBiT cells, 24 h incubation
Method: HEK293 clonal lines with CRISPR KI HiBiT tag on CSNK1A1 and stably expressing LgBiT protein were obtained from Promega (Madison, WI). […] Cells were incubated at 37° C., 5% CO2 for 24 hours and then signal was read on a Pherastar FSX using “LUM plus” optic module. Data analysis was performed in Scinamic (Scinamic, Cambridge, MA). […]
A collection of compounds and their measured DC50
QUANTITY_MEASURED: DC50

compound="N#Cc1cccc2c1CN(C(=O)Nc1ccc3c(c1)CN(C1CCC(=O)NC1=O)C3=O)C2 (stereo not drawn) [Compound 213]" measured_value="0.1 to 1 µM"
compound="O=C1CCC(N2Cc3cc(NC(=O)N4CCc5ccc(C6CCC6)cc54)ccc3C2=O)C(=O)N1 (stereo not drawn) [Compound 358]" measured_value="< 0.1 µM"
compound="COC(C)c1cccc2c1CCN2C(=O)Nc1ccc2c(c1)CN(C1CCC(=O)NC1=O)C2=O (stereo not drawn) [Compound 343]" measured_value="< 0.1 µM"
compound="Cc1ccc2c(c1)N(C(=O)Nc1ccc3c(c1)CN(C1CCC(=O)NC1=O)C3=O)CCC2 (stereo not drawn) [Compound 149]" measured_value="0.1 to 1 µM"
compound="Cc1cccc(C2CN(C(=O)Nc3ccc4c(c3)CN(C3CCC(=O)NC3=O)C4=O)C2)c1 (stereo not drawn) [Compound 226]" measured_value="< 0.1 µM"
compound="C[C@@H]1C[C@H](C)c2ccccc2N1C(=O)Nc1ccc2c(c1)CN(C1CCC(=O)NC1=O)C2=O (stereo partly drawn) [Compound 128]" measured_value="0.1 to 1 µM"
compound="Cc1ccc(C2CN(C(=O)Nc3ccc4c(c3)CN(C3CCC(=O)NC3=O)C4=O)C2)cc1 (stereo not drawn) [Compound 228]" measured_value="< 0.1 µM"
compound="N#Cc1ccc2c(c1)CCN2C(=O)Nc1ccc2c(c1)CN(C1CCC(=O)NC1=O)C2=O (stereo not drawn) [Compound 142]" measured_value="< 0.1 µM"
compound="N#Cc1ccc2c(c1)CCCN2C(=O)Nc1ccc2c(c1)CN(C1CCC(=O)NC1=O)C2=O (stereo not drawn) [Compound 150]" measured_value="0.1 to 1 µM"
compound="O=C1CCC(N2Cc3cc(NC(=O)N4Cc5ccccc5C4)ccc3C2=O)C(=O)N1 (stereo not drawn) [Compound 106]" measured_value="< 0.1 µM"
compound="C[C@H]1CCCN(C(=O)Nc2ccc3c(c2)CN(C2CCC(=O)NC2=O)C3=O)C1 (stereo partly drawn) [Compound 279]" measured_value="0.1 to 1 µM"
compound="CC(C)C1CN(C(=O)Nc2ccc3c(c2)CN(C2CCC(=O)NC2=O)C3=O)c2ccccc21 (stereo not drawn) [Compound 203]" measured_value="< 0.1 µM"
compound="O=C1CCC(N2Cc3cc(NC(=O)N4CCC(c5nccs5)C4)ccc3C2=O)C(=O)N1 (stereo not drawn) [Compound 247]" measured_value="0.1 to 1 µM"
compound="O=C1CCC(N2Cc3cc(NC(=O)N4CCc5cc(F)ccc5C4)ccc3C2=O)C(=O)N1 (stereo not drawn) [Compound 193]" measured_value="< 0.1 µM"
compound="O=C1CCC(N2Cc3cc(NC(=O)N4CCc5ccc(C6CCOCC6)cc54)ccc3C2=O)C(=O)N1 (stereo not drawn) [Compound 365]" measured_value="0.1 to 1 µM"
compound="O=C1CCC(N2Cc3cc(NC(=O)N4CC(c5ccc(Cl)cc5)C4)ccc3C2=O)C(=O)N1 (stereo not drawn) [Compound 231]" measured_value="< 0.1 µM"
compound="O=C1CCC(N2Cc3cc(NC(=O)N4CCc5cnccc5C4)ccc3C2=O)C(=O)N1 (stereo not drawn) [Compound 207]" measured_value="> 1 µM"
compound="CC1Cc2ccccc2N(C(=O)Nc2ccc3c(c2)CN(C2CCC(=O)NC2=O)C3=O)C1 (stereo not drawn) [Compound 153]" measured_value="< 0.1 µM"
compound="O=C1CCC(N2Cc3cc(NC(=O)N4CCc5cccc(F)c54)ccc3C2=O)C(=O)N1 (stereo not drawn) [Compound 163]" measured_value="< 0.1 µM"
compound="COCC1c2cc(C)ccc2CN1C(=O)Nc1ccc2c(c1)CN(C1CCC(=O)NC1=O)C2=O (stereo not drawn) [Compound 336]" measured_value="< 0.1 µM"
compound="O=C1CCC(N2Cc3cc(NC(=O)N4c5ccccc5C[C@H]4COC(F)F)ccc3C2=O)C(=O)N1 (stereo partly drawn) [Compound 309]" measured_value="< 0.1 µM"
